Hey, just so you know, these numbers are from paper PMC4222603.

TGT: IN-LEDGF/p75 interaction (Human immunodeficiency virus type 1 group M subtype B)
EXPERIMENT DESCRIPTION: biochemical
MEASUREMENT CONTEXT: IC50 on IN-LEDGF interaction inhibition, LEDGF competition, starting value, lowest LEDGF/p75 competing concentration (range 7.5 nM to 480 nM)
READOUT TYPE: IC50 (nM)
Numbers only, in nM.

Qu. IC50 of Cc1nc2c(c(-c3ccc4c(c3)CCCO4)c1C(OC(C)(C)C)C(=O)O)CCCC2 (stereo not shown) on IN-LEDGF/p75 interaction (Human immunodeficiency virus type 1 group M subtype B)?
Ans. 97

====

Assign IC50 to each entry below.
TGT: IN-LEDGF/p75 interaction (Human immunodeficiency virus type 1 group M subtype B, UniProt P12497)
EXPERIMENT DESCRIPTION: biochemical
MEASUREMENT CONTEXT: IN-LEDGF IC50, Table 1; HTRF, full length proteins

// solved cases for IC50 follow
[[record]]
compound = "CC(C)(C)OC(C(=O)O)c1ccc(Oc2ccccc2)cc1-c1ccc2c(c1)CCCO2 (stereo not shown) [Mut063]"
readout_type = "IC50"
reading = "> 100 µM"

[[record]]
compound = "CC(C)(C)OC(C(=O)O)C1=C(c2ccc3c(c2)CCCO3)c2ccccc2OC1 (stereo not shown) [Mut062]"
readout_type = "IC50"
reading = "3.1 µM"

[[record]]
compound = "Cc1nc2c(c(-c3ccc4c(c3)CCCO4)c1C(OC(C)(C)C)C(=O)O)CCCC2 (stereo not shown) [Mut101]"
readout_type = "IC50"
reading = "0.2 µM"

[[record]]
compound = "Cc1nc2ccccc2c(C2CCCCC2)c1C(OC(C)(C)C)C(=O)O (stereo not shown) [Mut049]"
readout_type = "IC50"
reading = "3.5 µM"


Need IC50 for each of these compounds.
1. CC(C)(C)OC(C(=O)O)c1c(-c2ccc3c(c2)CCCO3)ccc2ccccc12 (stereo not shown) [Mut047]
2. CC(C)(C)OC(C(=O)O)c1c(-c2ccc3c(c2)CCCO3)ccc2ncccc12 (stereo not shown) [Mut029]
3. Cc1nc2c(c(-c3ccccc3)c1C(OC(C)(C)C)C(=O)O)CCCC2 (stereo not shown) [Mut075]

Ans.
7.9 µM
2.5 µM
4 µM

====

Test system: HIV-1 NL4-3
EXPERIMENT DESCRIPTION: Antiviral assay in MT-4 cells, multiple-round infection, CellTiter-Glo
Format: cell-based
MEASUREMENT CONTEXT: Human immunodeficiency virus 1, NL43, MT4, read-out: EC50 NL4-3 WT
Procedure: MT-4 cells growing exponentially at the density of 10^6/mL were infected with HIV-1 strain NL4-3 at a MOI (multiplicity of infection) of 0.001 for 2 h. The cells were washed with PBS and aliquoted, using 100 μL fresh complete RPMI, into 96-well white plates (Corning) in the presence of different concentrations of compounds.
READOUT TYPE: EC50 (nM)
One number for each entry, in nM.

Qu. Recorded EC50 of Cc1nnc(C(=O)NC(C)(C)c2nc(C(=O)NCc3ccc(F)cc3)c(O)c(=O)n2C)o1 [RAL, Raltegravir, reference compound] , please.
Ans. 7

====

Test system: NL4-3 Integrase G140S, Q148H
EXPERIMENT DESCRIPTION: Antiviral assay on INSTI-resistant virus
Format: cell-based, HIV-1
MEASUREMENT CONTEXT: ratio EC50 resistant virus / wt virus
READOUT TYPE: EC50 fold change INSTIs
Answers are plain numbers.

[[record]]
compound = "COc1cc2c(cc1Cc1cccc(Cl)c1F)c(=O)c(C(=O)O)cn2[C@H](CO)C(C)C"
reading = 2036

[[record]]
compound = "Cc1ccnc2c1NC(=O)c1cccnc1N2C1CC1"
reading = 1

[[record]]
compound = "CC(C)(C)NC(=O)[C@@H]1CN(Cc2cccnc2)CCN1C[C@@H](O)C[C@@H](Cc1ccccc1)C(=O)N[C@H]1c2ccccc2C[C@H]1O"
reading = 1

[[record]]
compound = "Cc1nc2c(c(-c3ccc4c(c3)CCCO4)c1C(OC(C)(C)C)C(=O)O)CCCC2 (centres unmarked)"
reading = 1


Qu. May I ask what EC50 fold change INSTIs has been recorded for Cc1cn([C@H]2C[C@H](N=[N+]=[N-])[C@@H](CO)O2)c(=O)[nH]c1=O ?
Ans. 0.4
